# EXPERIMENTAL_SYSTEM: T1, RESTV GP on rVSV particles (Reston virus (RESTV), UniProt Q66799 34-677)
# T1 sequence: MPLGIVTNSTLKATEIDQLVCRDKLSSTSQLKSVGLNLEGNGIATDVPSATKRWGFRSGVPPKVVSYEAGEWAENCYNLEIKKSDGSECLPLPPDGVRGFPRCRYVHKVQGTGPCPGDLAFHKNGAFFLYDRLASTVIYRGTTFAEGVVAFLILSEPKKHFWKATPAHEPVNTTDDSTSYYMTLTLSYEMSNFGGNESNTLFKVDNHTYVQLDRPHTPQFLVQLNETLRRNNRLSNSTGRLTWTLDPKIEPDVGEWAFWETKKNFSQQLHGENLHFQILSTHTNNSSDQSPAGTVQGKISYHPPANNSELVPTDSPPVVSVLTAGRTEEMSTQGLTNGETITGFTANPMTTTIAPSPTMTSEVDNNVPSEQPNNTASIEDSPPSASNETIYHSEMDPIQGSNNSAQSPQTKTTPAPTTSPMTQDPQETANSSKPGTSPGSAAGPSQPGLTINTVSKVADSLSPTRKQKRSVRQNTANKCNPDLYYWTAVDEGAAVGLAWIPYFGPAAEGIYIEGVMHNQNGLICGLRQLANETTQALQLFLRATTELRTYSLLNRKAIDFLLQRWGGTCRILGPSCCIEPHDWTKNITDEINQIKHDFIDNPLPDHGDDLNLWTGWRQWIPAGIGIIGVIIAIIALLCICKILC
# PROTOCOL_DETAILS: cell-based or functional assay
TEST_READOUT: IC50, half-maximal neutralization of viral infectivity (rVSV-GP) (nM)
Hi! Could you send only the number? It should be in nM, unit omitted.

Take a look at these entries with their results.
Input line: Recorded IC50, half-maximal neutralization of viral infectivity (rVSV-GP) of PE-87 G106A (antibody, V domains shown) VH: QVQLVQSGVTLVQPGGSLRVSCAASGFTFSSYAMSWVRQAPGKGLEWVSAISGLGGSTYYADSVKGRFTISRDNSKNTLYLQMNSLRAEDTAVYYCAKDHRVWAAAYHFDYWGQGALVTVSS VL: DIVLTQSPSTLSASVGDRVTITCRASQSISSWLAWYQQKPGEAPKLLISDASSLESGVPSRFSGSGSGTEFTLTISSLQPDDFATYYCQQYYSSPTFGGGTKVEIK , please.
Output line: 0.2

Input line: Recorded IC50, half-maximal neutralization of viral infectivity (rVSV-GP) of PE-87 Y107A (antibody, V domains shown) VH: QVQLVQSGVTLVQPGGSLRVSCAASGFTFSSYAMSWVRQAPGKGLEWVSAISGLGGSTYYADSVKGRFTISRDNSKNTLYLQMNSLRAEDTAVYYCAKDHRVWAAGAHFDYWGQGALVTVSS VL: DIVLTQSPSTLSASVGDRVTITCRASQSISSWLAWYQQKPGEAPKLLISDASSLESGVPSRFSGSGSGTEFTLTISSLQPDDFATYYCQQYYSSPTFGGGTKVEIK , please.
Output line: 1.3

Input line: Recorded IC50, half-maximal neutralization of viral infectivity (rVSV-GP) of PE-87 H108A (antibody, V domains shown) VH: QVQLVQSGVTLVQPGGSLRVSCAASGFTFSSYAMSWVRQAPGKGLEWVSAISGLGGSTYYADSVKGRFTISRDNSKNTLYLQMNSLRAEDTAVYYCAKDHRVWAAGYAFDYWGQGALVTVSS VL: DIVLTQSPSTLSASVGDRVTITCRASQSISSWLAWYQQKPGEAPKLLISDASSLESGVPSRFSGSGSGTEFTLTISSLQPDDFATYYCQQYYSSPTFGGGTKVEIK , please.
Output line: 0.5

More entries:
Input line: Recorded IC50, half-maximal neutralization of viral infectivity (rVSV-GP) of PE-87 H100A (antibody, V domains shown) VH: QVQLVQSGVTLVQPGGSLRVSCAASGFTFSSYAMSWVRQAPGKGLEWVSAISGLGGSTYYADSVKGRFTISRDNSKNTLYLQMNSLRAEDTAVYYCAKDARVWAAGYHFDYWGQGALVTVSS VL: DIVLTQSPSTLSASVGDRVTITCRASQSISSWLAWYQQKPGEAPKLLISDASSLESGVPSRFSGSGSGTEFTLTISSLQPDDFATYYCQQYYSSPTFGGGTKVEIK , please.
Output line: 0.2

Input line: Recorded IC50, half-maximal neutralization of viral infectivity (rVSV-GP) of PE-87 F109A (antibody, V domains shown) VH: QVQLVQSGVTLVQPGGSLRVSCAASGFTFSSYAMSWVRQAPGKGLEWVSAISGLGGSTYYADSVKGRFTISRDNSKNTLYLQMNSLRAEDTAVYYCAKDHRVWAAGYHADYWGQGALVTVSS VL: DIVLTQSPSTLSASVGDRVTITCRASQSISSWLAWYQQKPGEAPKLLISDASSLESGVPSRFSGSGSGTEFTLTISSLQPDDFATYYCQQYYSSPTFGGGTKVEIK , please.
Output line: 0.4
